// data source = patent US20250381223A1

Here the recorded percent of cells in the CD123-Fc positive gate is given for each entry.
Molecular target: T1, CD123-Fc recombinant protein (human, UniProt P26951 19-305)
T1 construct: construct not described; not shown: Fc part
T1 sequence (looked up): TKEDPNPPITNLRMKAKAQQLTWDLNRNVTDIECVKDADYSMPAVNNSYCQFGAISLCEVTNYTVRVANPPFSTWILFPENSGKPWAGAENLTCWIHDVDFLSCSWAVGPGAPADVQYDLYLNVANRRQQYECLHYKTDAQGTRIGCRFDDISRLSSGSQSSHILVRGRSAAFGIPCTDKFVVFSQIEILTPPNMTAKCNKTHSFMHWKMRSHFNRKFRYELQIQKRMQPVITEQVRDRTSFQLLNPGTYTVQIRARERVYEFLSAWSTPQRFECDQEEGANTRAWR
Experiment: flow cytometry of T cells electroporated with CAR mRNA, stained with CD123-Fc + PE-anti-hIgG-Fc; Mock 0.36
Expressed in %, but write only the number.

# count of solved cases: 5
binder	recorded value
anti-CD123 scFv-C26 (scFv, On mRNA-electroporated T cells as CAR) scFv: QSVLTQPPSASGTPGQRVTISCSGSRSNIGSNTVSWYQQFPGTAPKLLIYLNNQRPSGVPDRFSGSKSGTSASLAISGLQSEDEAEYYCATWDDDLNGVFGGGTKLTVLGGGGSGGGGSGGGGSEVQLVESGGGLVQPGGSLRLSCAASGFTLSNFEMNWVRQAPGRGLEWVSYISATTSATSYADSVKGRFTISRDNAKNSLYLQMNSLRAEDTAVYYCARVRDGYNFGYYYYYMDVWGKGTTVTVSS	73.4
anti-CD123 scFv-C23 (scFv, On mRNA-electroporated T cells as CAR) scFv: DILMTQSPSSLSASVGDRVTITCQASQDISNYLNWYQQKPGKAPKLLIYDASNLETGVPSRFSGSGSGTGFSFTISSLQPEDFATYYCQQYGNLPLTFGGGTKLEIKGGGGSGGGGSGGGGSQVQLVQSGAEVKKPGASVKVSCKASGYTFTSYGISWVRQAPGQGLEWMGWISAYNGNTNYAQKLQGRVTMTTDTSTSTAYMELRSLRSDDTAVYYCARDRIAAAEVYYYYGMDVWGQGTTVTVSS	81.8
anti-CD123 scFv-C30 (scFv, On mRNA-electroporated T cells as CAR) scFv: AIRLTQSPSSLSASVGDRVTITCQASQNINNYLNWYQQKSGKAPKLLIYDASNLEAGVPSRFSGSASGTDFTFTISSLQPEDIATYYCQQNDNLPLTFGQGTRLEIKGGGGSGGGGSGGGGSEVQLVESGGGVVRPGGSLRLSCAASGFTFGDYGMSWVRQAPGKGLEWVSGINWNGGSTGYADSVKGRFTISRDNAKNSLYLQMNSLRAEDTALYYCARDRAPDYGDYLQVGTTDYWGQGTLVTVSS	80.7
anti-CD123 scFv-C27 (scFv, On mRNA-electroporated T cells as CAR) scFv: EIVLTQSPGTVSLSPGERATLSCRASQRVSATYLAWYQQKPGQAPRLLMYGGSRRATGIPDRFSGSGSGTDFTLTIRRLEPEDSAVYYCQQYGSSPLTFGGGTKLEIKGGGGSGGGGSGGGGSQVQLVQSGSELKKPGASVKVSCKASGYTFTSYGISWVRQAPGQGLEWMGWISAYNGNTNYAQKLQGRVTMTTDTSTSTAYMELRSLRSDDTAVYYCARDPYDDYGGNSRDEEDAFDIWGQGTTVTVSS	47.8
anti-CD123 scFv-C29 (scFv, On mRNA-electroporated T cells as CAR) scFv: QPVLTQPPSASGTPGQRVTISCSGSSSNIGSNYVYWYQQLPGTAPKLLIYRNNQRPSGVPDRFSGSKSGTSASLAISGLRSEDEADYYCAAWDDSLSGYVFGTGTKVTVLGGGGSGGGGSGGGGSEVHLVESGGGLVQPGRSLRLSCTASGFTFGDYAMSWVRQAPGKGLEWVGFIRSKAYGGTTEYAASVKGRFTISRDDSKSIAYLQMNSLKTEDTAVYYCTRDIGYYGSGSYSPFDYWGQGTLVTVSS	21.6

In the following, a different binder is considered.
Return reported percent of cells in the CD123-Fc positive gate; argument: anti-CD123 scFv-C19 (scFv, On mRNA-electroporated T cells as CAR) scFv: DIRMTQSPSSLSASVGDRVTITCRASQDIRHDLGWYQQKPGKAPSLLMYATSTLQSGVPSRFSGSGSGTHFTLTISSLKPEDSATYYCLQDGDYPLTFGGGTKLEIKGGGGSGGGGSGGGGSQVQLVQSGGGVVQPGRSLRLSCAASGFTFSSYGMHWVRQAPGKGLEWVAVISYDGSNKYYADSVKGRFTISRDNSKNTLYLQMNSLRAEDTAVYYCAKDPSLIQYYYYGMDVWGQGTMVTVSS 65.4
